# System: Disintegrin and metalloproteinase domain-containing protein 17 (Homo sapiens)
# Sequence (P78536 whole entry, the tested form may be a part): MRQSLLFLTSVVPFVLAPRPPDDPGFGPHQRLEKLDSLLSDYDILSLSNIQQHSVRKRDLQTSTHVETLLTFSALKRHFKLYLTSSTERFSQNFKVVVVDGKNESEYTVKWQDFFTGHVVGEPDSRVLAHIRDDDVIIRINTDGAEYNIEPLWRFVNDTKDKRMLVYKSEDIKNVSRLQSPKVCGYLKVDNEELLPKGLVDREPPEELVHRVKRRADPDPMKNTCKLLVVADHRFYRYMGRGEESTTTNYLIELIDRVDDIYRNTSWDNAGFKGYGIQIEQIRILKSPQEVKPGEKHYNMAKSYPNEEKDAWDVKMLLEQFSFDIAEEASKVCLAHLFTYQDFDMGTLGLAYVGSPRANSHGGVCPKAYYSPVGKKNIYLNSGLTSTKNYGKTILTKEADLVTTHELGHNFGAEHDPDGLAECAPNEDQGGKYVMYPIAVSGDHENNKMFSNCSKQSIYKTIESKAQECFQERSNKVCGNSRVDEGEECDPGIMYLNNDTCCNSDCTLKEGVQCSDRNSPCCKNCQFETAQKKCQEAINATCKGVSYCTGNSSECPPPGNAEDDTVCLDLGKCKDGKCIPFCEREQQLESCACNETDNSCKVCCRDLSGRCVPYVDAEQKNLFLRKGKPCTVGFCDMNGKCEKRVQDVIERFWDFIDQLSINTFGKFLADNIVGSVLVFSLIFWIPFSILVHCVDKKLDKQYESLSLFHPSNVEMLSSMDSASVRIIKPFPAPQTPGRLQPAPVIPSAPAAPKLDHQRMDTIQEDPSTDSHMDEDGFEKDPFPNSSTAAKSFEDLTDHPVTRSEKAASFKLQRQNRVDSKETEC
# Assay Details: Inhibition of human TACE after 5 mins
pIC50: −log10 of the molar value.
Attribute Measured: pIC50

> print(dat)
                          structure.smiles  attribute.measured  result
1  O=C(COc1ccc(Cl)cc1)NNC(=S)NCCCCC1CCCCC1               pIC50  < 5.00

###

Sequence of the target: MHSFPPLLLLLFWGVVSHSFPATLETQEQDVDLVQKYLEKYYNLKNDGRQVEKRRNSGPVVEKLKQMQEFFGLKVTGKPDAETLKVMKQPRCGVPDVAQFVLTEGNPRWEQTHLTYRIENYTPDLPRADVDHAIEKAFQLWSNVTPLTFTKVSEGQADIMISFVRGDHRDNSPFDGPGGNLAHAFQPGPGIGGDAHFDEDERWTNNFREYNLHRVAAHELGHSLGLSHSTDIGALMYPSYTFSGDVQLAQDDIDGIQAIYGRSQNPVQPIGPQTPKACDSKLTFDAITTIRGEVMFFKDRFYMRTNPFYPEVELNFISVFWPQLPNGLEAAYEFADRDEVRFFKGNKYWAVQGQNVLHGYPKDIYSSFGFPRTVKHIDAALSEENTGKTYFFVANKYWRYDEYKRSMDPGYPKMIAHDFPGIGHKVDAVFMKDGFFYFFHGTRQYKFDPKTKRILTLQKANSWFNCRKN
Attribute Measured: IC50

> print(dat)
                          structure.smiles  attribute.measured   result
1  O=C(COc1ccc(Cl)cc1)NNC(=S)NCCCCC1CCCCC1                IC50  > 10 µM

###

# System: A disintegrin and metalloproteinase with thrombospondin motifs 4 (Homo sapiens, UniProt O75173)
# Sequence (O75173 whole entry): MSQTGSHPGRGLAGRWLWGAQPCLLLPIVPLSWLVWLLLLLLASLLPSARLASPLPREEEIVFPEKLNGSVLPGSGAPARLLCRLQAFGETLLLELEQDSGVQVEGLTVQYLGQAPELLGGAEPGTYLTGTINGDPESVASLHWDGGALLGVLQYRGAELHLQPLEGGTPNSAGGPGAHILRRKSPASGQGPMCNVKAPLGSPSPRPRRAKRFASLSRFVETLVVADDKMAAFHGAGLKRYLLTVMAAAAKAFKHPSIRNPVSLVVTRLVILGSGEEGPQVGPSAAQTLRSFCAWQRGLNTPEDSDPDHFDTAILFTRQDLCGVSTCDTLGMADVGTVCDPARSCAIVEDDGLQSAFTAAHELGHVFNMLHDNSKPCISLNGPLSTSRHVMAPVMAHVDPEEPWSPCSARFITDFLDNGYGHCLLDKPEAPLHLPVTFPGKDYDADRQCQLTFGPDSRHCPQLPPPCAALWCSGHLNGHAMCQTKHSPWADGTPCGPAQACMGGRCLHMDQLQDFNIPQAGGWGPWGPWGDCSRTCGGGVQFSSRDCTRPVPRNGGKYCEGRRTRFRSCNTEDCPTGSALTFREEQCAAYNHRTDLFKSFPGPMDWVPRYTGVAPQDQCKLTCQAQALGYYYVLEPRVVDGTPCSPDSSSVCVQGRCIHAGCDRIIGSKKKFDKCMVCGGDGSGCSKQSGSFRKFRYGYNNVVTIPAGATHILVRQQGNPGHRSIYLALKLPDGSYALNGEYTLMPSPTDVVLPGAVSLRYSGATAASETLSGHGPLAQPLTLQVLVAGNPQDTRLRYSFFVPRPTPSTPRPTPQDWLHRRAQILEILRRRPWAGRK
# Assay Details: Inhibition of human recombinant ADAMTS-4 using QTVTWPDMELPLPRNITEGEARGSVIL-TVKPIFEVSPSPL(biotinyl)K as substrate incubated for 10 mins prior to substrate addition measured after 3 hrs by spectrophotometry
pIC50: −log10 of the molar value.
Attribute Measured: pIC50

> print(dat)
                           structure.smiles  result.number
1  O=C(COc1ccc(C(F)(F)F)cc1)NNC(=S)NCCCCC1CCCCC1           6.21
2  O=C(NNC(=S)NCc1ccc(-c2ccccc2)cc1)c1ccc(Cl)cc1           5.80
3  O=C(COc1cccc2ccccc12)NNC(=S)NCCCCC1CCCCC1           6.00
4  O=C(COc1ccc([N+](=O)[O-])cc1)NNC(=S)NCCCCC1CCCCC1           6.10

###

# System: A disintegrin and metalloproteinase with thrombospondin motifs 5 (Homo sapiens)
# Assay Details: Inhibition of human recombinant ADAMTS-5 using QTVTWPDMELPLPRNITEGEARGSVIL-TVKPIFEVSPSPL(biotinyl)K as substrate at 100 uM incubated 10 mins prior to substrate addition measured after 3 hrs by spectrophotometry
Recorded measurements of inhibition, one per entry
Attribute Measured: inhibition (%)

> print(dat)
                           structure.smiles  attribute.measured  limit.qualifier  result.number
1      O=C(COc1ccc(Cl)cc1)NNC(=S)NCc1cccnc1          inhibition                =             50
2       O=C(COc1ccccc1)NNC(=S)NCCCCC1CCCCC1          inhibition                <             20
3  O=C(COc1ccc(F)cc1)NNC(=S)NCc1ccc(-c2ccccc2)cc1          inhibition                =             49
4                CC(=O)NNC(=S)NCCCCC1CCCCC1          inhibition                <             20
5   COc1ccc(OCC(=O)NNC(=S)NCCCCC2CCCCC2)cc1          inhibition                =             50
